Source of measurements: patent US11247976B2

target: RhlR (Pseudomonas aeruginosa, UniProt P54292); construct: expressed in transfected cells; host or cells: E. coli JLD271 (ΔsdiA) with pJN105R2 (arabinose-induced) and pSC11-rhlI*; assay: E. coli RhlR reporter antagonism assay vs 10 μM BHL (JLD271/pJN105R2/pSC11-rhlI*); assay type: cell-based, P. aeruginosa; conditions: read-out: % inhibition (1 mM), compound at 1 mM in the presence of 10 μM BHL; negative = agonism stronger than 10 μM BHL alone
Sequence (P54292 whole entry): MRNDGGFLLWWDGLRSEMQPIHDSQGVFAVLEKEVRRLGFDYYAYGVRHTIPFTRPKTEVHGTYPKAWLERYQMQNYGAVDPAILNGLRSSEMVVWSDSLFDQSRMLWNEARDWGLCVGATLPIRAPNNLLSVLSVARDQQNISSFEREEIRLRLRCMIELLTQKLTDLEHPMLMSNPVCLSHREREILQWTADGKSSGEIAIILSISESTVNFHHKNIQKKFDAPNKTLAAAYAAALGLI
Quantity: inhibition at 1000 µM (%)
One number for each entry, in %.

Reference set, count: 5
Compound	System	inhibition at 1000 µM / %
CCCC(=O)N[C@H]1CCNC1=O	RhlR (Pseudomonas aeruginosa, UniProt P54292)	35
CC(C)CC(=O)NC1CCCC1	RhlR (Pseudomonas aeruginosa, UniProt P54292)	31
O=C(N[C@H]1CCOC1=O)C1CC1	RhlR (Pseudomonas aeruginosa, UniProt P54292)	-69
O=C(CC1CC1)N[C@H]1CCOC1=O	RhlR (Pseudomonas aeruginosa, UniProt P54292)	-108
C/C=C/CC(=O)N[C@H]1CCOC1=O	RhlR (Pseudomonas aeruginosa, UniProt P54292)	-47

Can you give me inhibition at 1000 µM for all of these, one by one?
1. CCC(CC)C(=O)N[C@H]1CCOC1=O
2. CC1(C(=O)N[C@H]2CCOC2=O)CC1
3. C=CCC(=O)N[C@H]1CCOC1=O
4. CC(C)(C)C(=O)N[C@H]1CCOC1=O
5. O=C(N[C@H]1CCOC1=O)C1CCC1

1: -66; 2: 24; 3: -110; 4: 25; 5: -110

Can you give me inhibition at 1000 µM for all of these, one by one?
1. O=C(NC1CCCC1)C1CCC1
2. CCCCC(=O)N[C@H]1CCOC1=O
3. CCCC(=O)N[C@H]1CCSC1=O
4. CC(C)CC(=O)N[C@H]1CCOC1=O
5. CC(C)C(=O)N[C@H]1CCOC1=O
6. CCCS(=O)(=O)N[C@H]1CCOC1=O

25
-91
-75
-123
-112
55

// each listed compound needs a value for inhibition at 1000 µM
1. CCCC(=O)NCC1CCCN1 (stereo not shown)
2. CC(C)CC(=O)N[C@H]1CCSC1=O
3. C#CCCC(=O)N[C@H]1CCOC1=O
4. CCC(C)C(=O)N[C@H]1CCOC1=O (stereo partly shown)
5. CCCC(=O)O[C@H]1CCOC1=O
6. O=C(N[C@H]1CCSC1=O)C1CCC1
7. CCCC(=O)NCC1CCCO1 (stereo not shown)

[-1, -81, -83, -101, 6, -114, 57]

Please go through the list and note inhibition at 1000 µM for each compound.
1. CCCC(=O)N[C@@H]1CCOC1=O
2. O=C(N[C@H]1CCCC1=O)C1CCC1

[11, -98]
